Catalogue of EC50 readings, one per entry.
# MEASURED_ON: ZIKV E Domain III (ZEDIII), polyhistidine-AviTag, produced in HEK-293-6E cells
# EXPERIMENT_SUMMARY: ELISA
MEASURED_PROPERTY: EC50 (µg/mL)

[[record]]
binder = "Z037 (antibody, V domains shown) VH: QVQLQESGPGLVKPSETLSLTCSVSGYFISSGHYWGWIRQSPGKGLEWIASIYQSGSKFQTGNTYYNPSLESRVTISMDTSKNQFSLKLSSVTAADTAVYFCARDARSRSWDRTGFFGPWGQGILVTVSS VL: EIVLTQSPGTLSLSPGERATLSCRASQSLSSSFLAWYQQKPGQSPRLLIYGTSSRDTGIPDRFSGSGSGTDFTLTISRLEPEDSAVYYCQQYGSSWGTFGQGTKLEIK"
measured_property = "EC50"
bound_operator = ">"
test_result = 0.4

[[record]]
binder = "Z006 (MEX105_42) (antibody, V domains shown) VH: EVQLLESGGGLVQPGGSLRLSCAASGFTFKNYAMAWVRQAPGKGLEWVSLLYNSEESTYYADSVKGRFTISRDNSKNTLFLQMNRLRVEDTAVYFCVRDRSNGWSSINLWGRGTLVTVSS VL: DIQMTQSPSTLSASVGDRVTMTCRASQTISGWLAWYQQKPGKAPKLLIYQASRLESGIPSRFSGSGSGTEFTLTISSLQPDDVATYYCQQYSTFWTFGLGTKVEIK"
measured_property = "EC50"
bound_operator = "="
test_result = 0.0351

[[record]]
binder = "Z012 (antibody, V domains shown) VH: QVQLVQSGAEVKKSGASVKVSCKASGYSFTTNYIHWVRQAPGQGPEWMGIINPRGGSTTYAQKFQGRVLMTSDTSTSTVYMELSSLRSEDRAVYYCARGKNHQTTVAVLSWYYGMDVWGQGTTVTVSS VL: DIQMTQSPSSVSASVGDRVTITCRASQGISSWLAWYQQKPGKAPKLLISAASSLQSGVPSRFSGSGSGTDFTLTISNLQPEDFATYFCQQANSFPYTFGQGTKLEIK"
measured_property = "EC50"
bound_operator = "="
test_result = 0.2

